Measured MIC values are reported for all entries that follow.
- System: Acinetobacter baumannii
- protocol_text: Antibacterial activity against multidrug-resistant Acinetobacter baumannii AYE by antimicrobial susceptibility assay
- Format: functional
attribute_measured: MIC (µg/mL)

{"molecule": "CCN[C@@H]1C[C@H](N)[C@@H](O[C@H]2OC(CN)=CC[C@H]2N)[C@H](O)[C@H]1O[C@H]1OC[C@](C)(O)[C@H](NC)[C@H]1O [NETILMICIN]", "value_qualifier": "=", "measured_number": 48}
{"molecule": "CN(C)c1ccc(O)c2c1C[C@H]1C[C@H]3[C@H](N(C)C)C(O)=C(C(N)=O)C(=O)[C@@]3(O)C(O)=C1C2=O [MINOCYCLINE]", "value_qualifier": "=", "measured_number": 0.5}
{"molecule": "O=C(N[C@H](CO)[C@H](O)c1ccc([N+](=O)[O-])cc1)C(Cl)Cl [CHLORAMPHENICOL]", "value_qualifier": ">", "measured_number": 256}
{"molecule": "C[C@@H](O)[C@H]1C(=O)N2C(C(=O)O)=C(SCCNC=N)C[C@H]12 [IMIPENEM ANHYDROUS]", "value_qualifier": "=", "measured_number": 1}

###

- System: Acinetobacter baumannii
- protocol_text: Antibacterial activity against multidrug-resistant Acinetobacter baumannii AYE by antimicrobial susceptibility assay
- Format: functional

{"compound": "CN(C)c1cc(NC(=O)CNC(C)(C)C)c(O)c2c1C[C@H]1C[C@H]3[C@H](N(C)C)C(O)=C(C(N)=O)C(=O)[C@@]3(O)C(O)=C1C2=O [TIGECYCLINE]", "target_under_test": "Acinetobacter baumannii", "unit_abbrev": "µg/mL", "value_qualifier": "=", "MIC": 1.5}
{"compound": "CCn1cc(C(=O)O)c(=O)c2cc(F)c(N3CCNCC3)cc21 [NORFLOXACIN]", "target_under_test": "Acinetobacter baumannii", "unit_abbrev": "µg/mL", "value_qualifier": ">", "MIC": 256}
{"compound": "NCC[C@H](O)C(=O)N[C@@H]1C[C@H](N)[C@@H](O[C@H]2O[C@H](CN)[C@@H](O)[C@H](O)[C@H]2O)[C@H](O)[C@H]1O[C@H]1O[C@H](CO)[C@@H](O)[C@H](N)[C@H]1O [AMIKACIN]", "target_under_test": "Acinetobacter baumannii", "unit_abbrev": "µg/mL", "value_qualifier": "=", "MIC": 96}
{"compound": "NC[C@H]1O[C@H](O[C@H]2[C@H](O)[C@@H](O[C@H]3O[C@H](CO)[C@@H](O)[C@H](N)[C@H]3O)[C@H](N)C[C@@H]2N)[C@H](N)C[C@@H]1O [TOBRAMYCIN]", "target_under_test": "Acinetobacter baumannii", "unit_abbrev": "µg/mL", "value_qualifier": "=", "MIC": 64}
{"compound": "CN(C)[C@@H]1C(O)=C(C(N)=O)C(=O)[C@@]2(O)C(O)=C3C(=O)c4c(O)cccc4[C@@](C)(O)[C@H]3C[C@@H]12 [TETRACYCLINE]", "target_under_test": "Acinetobacter baumannii", "unit_abbrev": "µg/mL", "value_qualifier": "=", "MIC": 64}
{"compound": "CO/N=C(\\C(=O)N[C@@H]1C(=O)N2C(C(=O)O)=C(COC(C)=O)CS[C@H]12)c1csc(N)n1 [CEFOTAXIME]", "target_under_test": "Acinetobacter baumannii", "unit_abbrev": "µg/mL", "value_qualifier": ">", "MIC": 256}
